# System: SH-SY5Y cells
# Assay Info: Nuclear count from microscopy images (cellular growth and toxicity); also: reference of the scale not given here
# Condition Notes: PKIS2 primary screening
// NOT MET strictly below 100 in Nuclear Count; MET otherwise

Input line: Please tell me: is the compound COCCNC(=O)c1ccc(-c2cc(C(=O)NC3CC3)cc(F)c2C)cc1 [UNC10225229A] at or over 100 in terms of Nuclear Count?
Output line: MET

Input line: Decide: Nuclear Count of NC(=O)Nc1sc(-c2ccc(F)cc2)cc1C(N)=O [UNC10225118A] >= 100?
Output line: NOT MET

Input line: Determine whether this compound has Nuclear Count no lower than 100: Cl.Cl.NCC(NC(=O)c1cc(-c2ccccc2)c(-c2ccnc3[nH]ccc23)s1)c1ccccc1 (centres unmarked) [UNC10225466A]
Output line: MET

Input line: Say whether COc1cccc(CNC(=O)NC2CCN(c3ccnc(Nc4ccc(F)cc4)n3)C2)c1 (centres unmarked) [GSK1379723] shows Nuclear Count of 100 or more.
Output line: NOT MET

Input line: Has c1ccc(Oc2ccc(Nc3ccnc4cc(-c5ccc(CNCCN6CCOCC6)o5)ccc34)cc2)nc1 [UNC10225054A] a recorded Nuclear Count greater than or equal to 100?
Output line: NOT MET

Input line: Entry CC(C)c1nc(-c2cccc(NS(=O)(=O)c3ccccc3)c2)c(-c2ccnc(Nc3ccc4c(c3)CN(C)CC4)n2)s1 [UNC10225068A] : is its Nuclear Count no less than 100?
Output line: NOT MET

Input line: Answer whether Nuclear Count of O=C(NCCNc1ccnc(Nc2ccc(F)cc2)n1)c1cc2ccccc2s1 [GSK1379874] is greater than or equal to 100.
Output line: NOT MET

Input line: Check this compound for Nuclear Count at or above 100: Clc1cc(Cl)cc(Nc2ccnc(Nc3cc(Cl)cc(Cl)c3)n2)c1 [GSK175726]
Output line: NOT MET

Input line: Test whether the compound CC(C)(C)n1cnc2c(N)ncnc21 [UNC10225362A] records Nuclear Count of 100 or higher.
Output line: NOT MET

Input line: Answer whether Nuclear Count of Cc1c(Cn2c(C)nn3c(=O)cc(N4CCO[C@H](C)C4)nc23)cccc1C(F)(F)F [UNC10225403A] is greater than or equal to 100.
Output line: NOT MET

Input line: Answer whether Nuclear Count of Nc1nc(-c2ccc3c(N)n[nH]c3c2)cc(N2CCC[C@@H](C(=O)Nc3ccccc3)C2)n1 [GSK2288359] is greater than or equal to 100.
Output line: NOT MET

Input line: # bool: Nuclear Count of Cc1cccc(Nc2nc(N[C@H]3CCCC[C@H]3N)ncc2C(N)=O)c1.Cl [UNC10225280A] >= 100
Output line: NOT MET

Input line: For this compound, is measured Nuclear Count 100 or higher? Cc1cn2c(=O)cc(N3CCOCC3)nc2n1Cc1cccc(Cl)c1Cl [UNC10225415A]
Output line: MET

Input line: Has CNC(=O)c1ccccc1Nc1nc(Nc2cccc(CS(C)(=O)=O)c2)ncc1C [GSK1520489] a recorded Nuclear Count greater than or equal to 100?
Output line: NOT MET

Input line: Quick check, Nuclear Count >= 100? Fc1ccc(-c2nc3n(c2-c2ccncc2)CCS3)cc1 [UNC10225163A]
Output line: NOT MET

Input line: Decide: is the reported value of Nuclear Count for CN1C(=O)C(Nc2cc(Cl)c(O)c(Cl)c2)=C(c2ccc(Cl)cc2)C1=O [UNC10225212A] equal to or greater than 100?
Output line: MET

Input line: Does COc1cc2c(Nc3cccc(NC(=O)c4ccccc4)c3)ncnc2cc1OCCCN1CCOCC1 [UNC10225271A] have a reported Nuclear Count of at least 100?
Output line: MET

Input line: Confirm if Nuclear Count reported for the compound Cc1cccc(-c2nc(Nc3ccncc3)c3ccccc3n2)n1 [GW855857] is 100 or above.
Output line: MET

Input line: Is Nuclear Count for O=c1cc(N2CCOCC2)nc2n(Cc3ccc(F)c(Cl)c3)ccn12 [UNC10225343A] at or above 100?
Output line: MET

Input line: Identify whether the reported Nuclear Count of the following compound is 100 or greater: Cc1cc(-c2c(-c3ccc(F)cc3)ncn2CCCN2CCOCC2)nc(N)n1 [UNC10225357A]
Output line: MET

Input line: In plain terms: is recorded Nuclear Count at least 100 for COc1cccc(-c2nc(-c3ccccc3)[nH]c2-c2ccncc2)c1 [UNC10225025A] ?
Output line: MET

Input line: Has Cl.Oc1cccc(Nc2ccnc3cc(-c4ccncc4)ccc23)c1 [UNC10225467A] a recorded Nuclear Count greater than or equal to 100?
Output line: NOT MET

Input line: Tell me whether Nuclear Count is at least 100 here: CC(C)NCC(Cc1ccccc1)NC(=O)c1cc(Br)c(-c2ccnc3[nH]ccc23)s1.Cl.Cl (centres unmarked) [UNC10225078A]
Output line: NOT MET

Input line: Given Nc1ncnc2c1nc(-c1ccccc1)n2-c1ccccc1 [UNC10225340A] , state whether its Nuclear Count is at least 100.
Output line: MET
